- Tested on: Enterococcus faecalis
- Protocol description: Antibacterial activity against Enterococcus faecalis ATCC 29212
- Assay type: functional
Readout name: MIC (µg/mL)

# Compound, Readout name, Units of measure, Readout value
rows = [
    ("CC[C@H]1OC(=O)/C=C\\[C@H](C)[C@@H](OC2OC(C)C(O)C(N(C)C)C2O)[C@@H](CC=O)C[C@@H](C)C(=O)/C=C/C(C)=C/[C@@H]1COC1OC(C)C(O)C(OC)C1OC (stereo partly drawn)", "MIC", "µg/mL", 8),
    ("CC[C@H]1O/C(O)=C/C(=O)[C@H](C)[C@@H](OC2OC(C)C(O)C(N(C)C)C2O)[C@@H](CC=O)C[C@@H](C)C(=O)/C=C/C(C)=C/[C@@H]1COC1OC(C)C(O)C(OC)C1OC (stereo partly drawn)", "MIC", "µg/mL", 8),
]

The values you see were collected from ChEMBL document CHEMBL1148383.
